assay: Pharmacokinetics in beagle dogs, intravenous; assay type: in vivo; conditions: beagle, dog, in vivo, iv, 1.4 mg/kg, 1.4 mg/kg intravenous slow bolus; mean ± SEM; n = 4 beagle dogs; read-out: T ½ (converted)
VALUE TYPE: half-life (h)
Please state the figure in h; there is no need to write the unit.

Give its half-life value. Item: CCCCCOc1ccc(-c2ccc(-c3ccc(C(=O)N[C@H]4C[C@@H](O)C(OCC[N+](C)(C)C)NC(=O)C5[C@@H](O)[C@@H](C)CN5C(=O)C([C@@H](C)O)NC(=O)C([C@H](O)[C@@H](O)c5ccc(O)cc5)NC(=O)C5C[C@@H](O)CN5C(=O)C([C@@H](C)O)NC4=O)cc3)cc2)cc1 (some centres unmarked) 53.1
